Target: VP1 capsid protein on BKV pseudovirions of genotype II (GBR-12; AB263920) (BK virus genotype II (GBR-12))
Test: cell-based or functional assay
Metric: Neutralization PSV IC50 (µg/mL)
Write it as a number; the unit µg/mL goes unstated.

{"Binder": "antibody G7P7 (antibody, V domains shown) VH: QVQLQESGPGLVRPSQTLSLTCTVSGGSMTSGSYYWSWIRQPAEKGLEWIGRIYTSGRTDYNPSLKSRVAMSIDTSKNQFSLRLTSVTAADTAVYYCARWGDSSAYYYVGDPWGRGTPVTVSS VL: DIQMTQSPSSLSASIGDRVTITCRASQNINTYLYWYQQKPGKAPQLLIYAASNLQTGAPSRFSGSGSGTDFTLTISSLQPADFATYYCQQSFSLPHTFGQGTKLEIK", "Neutralization PSV IC50 (µg/mL)": 0.0007}

Please find the next binder below.
query: I have this binder here, antibody E10P5 (antibody, V domains shown) VH: QVQLQESGPGLVKPSQTLSLTCSVSGGSISSGNYYWSWIRQPAGKGLEWIGRIYTSGNTNYNPSLKSRVTMSVDTSKNQFSLKLSSVTATDTAVYYCARVRRDGYNAFDYWGQGTLVTVSS VL: SYELTQPPSVSVSPGQTASIDCSGHNLGDKFTCWYQQKPGQSPVLVIYQDSKRPSGIPERFSGSNSGNTATLTISGTQAMDEADYYCQAWDSDTLYVFGTGTTVTVL , and I need its recorded Neutralization PSV IC50.
result: 0.0433
